Target: GTPase HRas (Homo sapiens)
Assay: activated H-Ras mutant GTP-binding inhibitors, SAR follow-up, biochemical, multiplex bead flow cytometry, round 1 (AID 588387)
Conditions: GST-H-Ras beads, Bodipy-FL-GTP binding
Reported EC50 is given for each of the following compounds.

Query: Quick check: EC50 on GTPase HRas (Homo sapiens), item `CC1(C)Cc2c(sc(NC(=S)NC(=O)c3ccccc3F)c2C(=O)O)CO1` ?
Reply: 0.051 µM

Query: Recall the recorded EC50 for `CC1(C)Cc2c(sc(NC(=O)NC(=O)c3ccccc3)c2C(=O)O)CO1` with GTPase HRas (Homo sapiens) and state it.
Reply: 0.151 µM

Query: API: value(readout= EC50, system= GTPase HRas (Homo sapiens), query= `O=C(NC(=S)Nc1sc2c(c1C(=O)O)CCOC2)c1ccccc1` )
Reply: 0.032 µM

Query: Form field - read-out: EC50; system: GTPase HRas (Homo sapiens); submitted item: `CC1(C)Cc2c(sc(NC(=S)NC(=O)c3ccc(Br)cc3)c2C(=O)O)CO1`
Reply: 0.26 µM

Query: Short answer please: EC50, GTPase HRas (Homo sapiens), entry `CC1(C)Cc2c(sc(NC(=S)NC(=O)c3ccccc3)c2C(=O)O)CO1`
Reply: 0.082 µM

Query: Form entry - test system: GTPase HRas (Homo sapiens); read-out: EC50; compound: `CC1(C)Cc2c(sc(NC(=S)NC(=O)c3ccccc3Br)c2C(=O)O)CO1`
Reply: 0.045 µM

Query: Find EC50 (GTPase HRas (Homo sapiens)) for the entry CC1Cc2c(sc(NC(=S)NC(=O)c3ccccc3)c2C(=O)O)CO1 (stereo unspecified)
Reply: 0.047 µM

Query: # returns recorded EC50 (system: GTPase HRas (Homo sapiens)) for `CC1(C)Cc2c(sc(NC(=S)NC(=O)c3cccc(F)c3)c2C(=O)O)CO1`
Reply: 0.278 µM

Query: What reported EC50 corresponds to `COc1ccc(C(=O)NC(=S)Nc2sc3c(c2C(=O)O)CC(C)(C)OC3)cc1` on GTPase HRas (Homo sapiens)?
Reply: 0.145 µM

Query: Form entry - test system: GTPase HRas (Homo sapiens); read-out: EC50; compound: `COc1cccc(C(=O)NC(=S)Nc2sc3c(c2C(=O)O)CC(C)(C)OC3)c1`
Reply: 0.033 µM

Query: Record lookup: for GTPase HRas (Homo sapiens), what EC50 belongs to `CC1(C)CCc2sc(NC(=S)NC(=O)c3ccccc3)c(C(=O)O)c2C1` ?
Reply: 0.076 µM

---

Biological target: GTPase HRas (Homo sapiens)
Experiment: activated H-Ras mutant GTP-binding inhibitors, SAR follow-up, biochemical, multiplex bead flow cytometry, round 1 (AID 588387)
Settings: GST-H-Ras beads, Bodipy-FL-GTP binding, at 100 µM (top of the series)
Active and inactive are the calls of the source.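 How the source made its calls: active means half-maximal binding-loss concentration at or below 10 µM, response change across doses of 30% or more, acceptable curve fit; inactive means the rest.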
measure: % response (remaining GTP binding)

Worked examples follow.
CCOC(=O)c1c(NC(=S)Nc2ccccc2)sc2c1CC(C)(C)OC2	inactive
CN1CCc2c(sc3nc(Nc4ccc(F)cc4)oc(=O)c23)C1	inactive
Cc1ccc(NC(=O)Nc2sc3c(c2C(=O)O)CCN(C)C3)cc1	inactive
CCOC(=O)c1c(N)sc2ccccc12	inactive
CC1(C)Cc2c(sc(NC(=S)NC(=O)c3cccc(Br)c3)c2C(=O)O)CO1	inactive

Query: # % response (remaining GTP binding) lookup, item `CCOC(=O)c1c(NC(=S)NC(=O)c2ccccc2)sc2ccccc12`
Reply: inactive

Query: Consider the compound shown here: `CCOC(=O)c1c(NC(=O)Nc2ccc(F)cc2)sc2c1CCN(C)C2` What is its recorded % response (remaining GTP binding)?
Reply: inactive

Query: Recorded % response (remaining GTP binding) of `CN1CCc2c(sc(NC(=O)Nc3ccc(F)cc3)c2C(=O)O)C1` , please.
Reply: inactive

Query: Please look up its % response (remaining GTP binding): `CC1(C)Cc2c(sc(NC(=S)Nc3ccccc3)c2C(=O)O)CO1`
Reply: inactive

Query: % response (remaining GTP binding) lookup needed for `CC1(C)Cc2c(sc(NC(=O)Cc3ccccc3)c2C(=O)O)CO1` , thanks.
Reply: inactive

Query: % response (remaining GTP binding); subject: `Cc1ccc(Nc2nc3sc4c(c3c(=O)o2)CCN(C)C4)cc1`
Reply: inactive
